- Method description: Plasma and urine pharmacokinetics
- Type: in vivo, human
- Protocol conditions: human, plasma, intravenous, 90 mg/m2, AUC0–24, weekly trial, W2, 90 mg/m^2 over 3 h, N=8; SD of geometric mean in parenthesis
Attribute measured: AUC(0-t) (ng·h/mL)

* COc1cc2c3c(n(CCCN4CCOCC4)c(=O)c2cc1OC)-c1cc2c(cc1C3=O)OCO2 | 18700

* * *

- Method description: Plasma and urine pharmacokinetics
- Format: in vivo, human
- Protocol conditions: human, plasma, intravenous, 60 mg/m2, t1/2, weekly trial, W1, 60 mg/m^2 over 3 h, N=6; SD of geometric mean in parenthesis
Attribute measured: half-life (h)

* COc1cc2c3c(n(CCCN4CCOCC4)c(=O)c2cc1OC)-c1cc2c(cc1C3=O)OCO2 | 89
